Values were extracted from the supplement of paper PMC9170038.

test system: K4 kissing-loop RNA reporter; assay: apparent KD of K4 kissing-loop reporter; higher = weaker reporter binding; settings: Eterna round: R107; input ligand: arginine 13.2 mM;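 also: bound reporter read as fluorescence of individual clusters on recovered sequencing chips by microscopy, with normalized cluster intensities fitted with a binding model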
apparent KD of K4 kissing-loop reporter: recorded values
Readout name: apparent KD of K4 kissing-loop reporter (nM)

sequence_entry="GGAUAGGAUAGAGGAUAUGGAGAACACAAAAGUGACUUGUUGUGUUUAUCCAUAGGGAGUGAUGUUCCAGAAGGCUGUCCUAUCG [MatMod 24 - Jieux - Exclusion - FMN B]" study_target="K4 kissing-loop RNA reporter" value_units=nM endpoint_result=178
sequence_entry="GCCAGCAGUACUGAUACCAGACUGCAUGUAGUGAUGUUGCAUAAGGGCAUAGAUGUCUCAGUCCCUUGGCAGCGGUACUGUUGCA [#10 K4 Theophylline B Same State]" study_target="K4 kissing-loop RNA reporter" value_units=nM endpoint_result=252
sequence_entry="AAGGGCGGAACAACCUCGCCGGAUAGAGAUACCAGCCCAGCAAUGGGCCCUUGGCAGCUCACUGACCUCAGUGAUGUUGAGGUUC [Laar]" study_target="K4 kissing-loop RNA reporter" value_units=nM endpoint_result=220
sequence_entry=GCUCAUCCGGCAGGAUAUAGGCAGGUAGAGUGAUGUUCGAACUGCAGUUAUCCAUCCUUCUACCUACUAGAAGGGCCGGAUGAGC study_target="K4 kissing-loop RNA reporter" value_units=nM endpoint_result=214
sequence_entry="AGAUUCGACACGGCCGCCACUCGUGGUGGAUUACCUAGUGUCGAAGUUGAGUGAUGUUCAAGUACGAGGACCGGGUGUUGAGUCU [KL-XTryp-B8 #analogue]" study_target="K4 kissing-loop RNA reporter" value_units=nM endpoint_result=310
sequence_entry="AAUAAAAUCACGGCCGCCACUGAUUUCCGUAUUAGGAGUGAUGUUCCUAUGACUAUAUAAUUUAACAGGACCGGGUGAAUAUUUA [#21 K4 Tryptophan B Exclusion]" study_target="K4 kissing-loop RNA reporter" value_units=nM endpoint_result=109
sequence_entry="UAAGAGGACCACUGCGAGAGUCCUCGAAUACGAGGACCGGUACGGCCGCCACUCGAUAAUUUGUAGUGAUGUUGCAAGUAAGAAU [BrourdMod 7 - Jieux - Same State Tryptophan A]" study_target="K4 kissing-loop RNA reporter" value_units=nM endpoint_result=64.5
sequence_entry="UCCACGCUUCGAGGAUAUCGGAUUAGAGUGAUGUUCUAAAGACGCCCAGUGAUGUUGGAUGCGAUACGAGAAGGCGGUGGCGUGU [Same State FMN B GF6]" study_target="K4 kissing-loop RNA reporter" value_units=nM endpoint_result=195
sequence_entry="CGCCGUAAGGCGAGCGCUCCCACUCCGGAAGGAGCGCCCGAAAGGGCAGGUAGGUCGCCGGAGUGAUGUUCCGGUGGAGGGCUCG [#2 Exclusion - Arginine A Attempt #28 (Inspired by Omei)]" study_target="K4 kissing-loop RNA reporter" value_units=nM endpoint_result=261
sequence_entry="AGAGUUAUGAGAGGAUAUGCGGCUAGUACUCAAAGAGUACUAGCAGCAGAGUGAUGUUCUGUGAAAGCAGAAGGUUCAUAACUCA [#06 K4 FMN B Same State]" study_target="K4 kissing-loop RNA reporter" value_units=nM endpoint_result=668
sequence_entry="CAUUCACGGCGAGUCGAAGUGAUGUUUCGGCGAGGACCGGUACGGCCGCCACUCGGAUAAAUAUAGCUUAUCACAUACACUUUCG [theeternabot_exclusion_KL_Trp_A_27]" study_target="K4 kissing-loop RNA reporter" value_units=nM endpoint_result=128
sequence_entry="UCGACUGUGUCGGCCGCCACUGGUAUAAACGGACUAUAACGACAUGAGUGAUGUUCAUGUUCGUCUAGGACCGGGACACAAUGUA [Tryp B Ex t3]" study_target="K4 kissing-loop RNA reporter" value_units=nM endpoint_result=81.8
sequence_entry="CUGACGUGCGGUAGGUUCAAGUGCUGGGAAGGAGCGCAGAUGACUGCAGGUAGGUCGCCCAGUGAUGUUGGGCUUUCCACCUACG [Quinbe]" study_target="K4 kissing-loop RNA reporter" value_units=nM endpoint_result=180
sequence_entry="UAUAGAGUGACGGCCGCCACUAUUGUGAUUUAAUUGUUAGAGUGAUGUUUUGUUGUUUGAUUUUGUAGGACCGGGUUAUAUGUUA [ecewzmullin]" study_target="K4 kissing-loop RNA reporter" value_units=nM endpoint_result=768
sequence_entry="UGAUACCAGACUGAUACCAGCGAGUGAUGUUCGCUGAAAUCAGGGUCAAAGACCCUGUCUCGCCCUUGGCAGCAGUCUGGUAUCU [TheoBX 20 #SwitchBubble #StaticStem]" study_target="K4 kissing-loop RNA reporter" value_units=nM endpoint_result=120
sequence_entry=GCCAGUGCACGAAGGAGCGCCGUGACAGGUUACUGCCUUGGGCAGUGAUGUUGCUCAAUCUGGCAGGUAGGUCGCGUGCACUGGC study_target="K4 kissing-loop RNA reporter" value_units=nM endpoint_result=147
sequence_entry="UGUUAUGUAUCAGGAUAUUAGUGAUGUUUGUUGAUGUUAGUGAUGUUGAUAUUUGUUUUAUGUAUUUAAGAAGGGAUUGAGAUGU [ooilmullin]" study_target="K4 kissing-loop RNA reporter" value_units=nM endpoint_result=19.2
sequence_entry=GGGUGAGCGCGAAGGAGCGCCCUGACAGGUUGCUGCCGUGGGCAGUGAUGUUGCUCAGUCCGGCAGGUAGGUCGCGUGCUCACCC study_target="K4 kissing-loop RNA reporter" value_units=nM endpoint_result=163
sequence_entry="UGUAUGUGAUUUGAUACCAGACCAGCUGGUGUUUCAAGAGUGAUGUUCUUGUAGGUUUGGGUCCCUUGGCAGCAAAUCGCAUACU [KL-SSTheoB15]" study_target="K4 kissing-loop RNA reporter" value_units=nM endpoint_result=122
sequence_entry="AAAGGCAAAGCCCGAGUGAUGUUCGACGAUACCAGCCUCGAUAGAGGCCCUUGGCAGCGUAAAUGAUCAUGAAGCCAAGGAAUAA [whbob_Ex_Theo_A_th67]" study_target="K4 kissing-loop RNA reporter" value_units=nM endpoint_result=302
sequence_entry="UUUGGUUUCUCGGCCGCCACUCGUUGGUUAUGGGCUUCAGGGAUAUAGUGAUGUUAUGUAUAGAAGAGGACCGGGAGAAGGUUUU [ExTryptoB.Du]" study_target="K4 kissing-loop RNA reporter" value_units=nM endpoint_result=368
sequence_entry="CUUGAUCGAGGAAGGAGCGGGCCGUCAUUGAGCGCAGUGAUGUUGCGUUCGACUAGUCGAGCCCAGGUAGGUCGCCUGGAGUAAG [Lazalaa]" study_target="K4 kissing-loop RNA reporter" value_units=nM endpoint_result=76.1
sequence_entry="AAGUCAUACAGAAGGAGCGUGUUUUAUAAUUUAUUUUCAUGAUCGAGUGAUGUUCGAUAUACACAGGUAGGUCGCUGUAUAAUAA [JR_SSArginiB_Sub007]" study_target="K4 kissing-loop RNA reporter" value_units=nM endpoint_result=146
